All values here come from ChEMBL document CHEMBL2158002.

Test system: HL-60
Assay: Inhibition of Ca2+-induced mitochondrial permeability transition in human HL60 cells at 50 uM after 40 mins relative to control
Format: functional
Conditions: HL-60, 40 min
inhibition at 50 µM reference

# smilesRepr, measurementUnits, inhibition at 50 µM
measured = [
    ("Nc1cccc(CN2C(=O)CN(NC(=O)c3ccc(-c4ccccc4)o3)C2=O)c1", "%", 19),
    ("Nc1ccc(CN2C(=O)CN(NC(=O)c3ccc(-c4cc(Cl)cc(Cl)c4)o3)C2=O)cc1", "%", 46),
    ("O=C(NN1CC(=O)N(Cc2cccnc2)C1=O)c1ccc(-c2cc(Cl)cc(Cl)c2)o1", "%", 71),
    ("Nc1cccc(CN2C(=O)CN(NC(=O)c3ccc(-c4cccc(Br)c4)o3)C2=O)c1", "%", 11),
    ("O=C(NN1CC(=O)N(Cc2ccncc2)C1=O)c1ccc(-c2cc(Cl)cc(Cl)c2)o1", "%", 8.7),
    ("Nc1cccc(CN2C(=O)CN(NC(=O)c3ccc(-c4cc(Cl)cc(Cl)c4)o3)C2=O)c1", "%", 48),
    ("Nc1cccc(CN2C(=O)CN(NC(=O)c3ccc(-c4ccc(Cl)cc4)o3)C2=O)c1", "%", 20),
]
